# targetOrSystem: T1, human ferroportin (SLC40A1) fused in frame with GFP, stably expressed in HEK293 cells (human, UniProt Q9NP59 1-571)
# T1 sequence (looked up): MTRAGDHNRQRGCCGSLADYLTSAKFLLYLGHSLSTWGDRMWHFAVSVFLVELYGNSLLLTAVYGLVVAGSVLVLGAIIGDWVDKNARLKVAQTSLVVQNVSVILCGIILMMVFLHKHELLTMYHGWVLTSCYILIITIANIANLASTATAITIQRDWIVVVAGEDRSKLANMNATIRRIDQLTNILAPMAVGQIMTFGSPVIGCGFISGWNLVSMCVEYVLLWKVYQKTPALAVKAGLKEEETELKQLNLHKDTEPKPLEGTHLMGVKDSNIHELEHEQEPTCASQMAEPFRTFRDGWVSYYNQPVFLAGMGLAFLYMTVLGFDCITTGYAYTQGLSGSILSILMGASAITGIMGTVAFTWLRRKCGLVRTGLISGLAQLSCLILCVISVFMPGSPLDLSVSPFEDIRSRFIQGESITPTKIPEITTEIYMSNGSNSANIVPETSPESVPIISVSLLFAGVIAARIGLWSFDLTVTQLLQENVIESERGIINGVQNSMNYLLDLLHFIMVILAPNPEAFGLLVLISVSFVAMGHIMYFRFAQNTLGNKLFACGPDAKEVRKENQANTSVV
# experimentNotes: cell-based or functional assay
Starred links: 1 amine or outer side, 2 acyl side, 3 side chain; linkers in the order of their positions; H or OH if unused. Positions of bridges follow the written chain, without caps; N, C: chain ends. Non-standard residues stand in square brackets, D forms with d. Groups on a side chain read outwards from the residue. *: point of attachment. Glu(OMe) = COC(=O)CC[C@H](N[*:1])C(=O)[*:2]; C18 diacid = O=C(O)CCCCCCCCCCCCCCCCC(=O)*; Dip = N[C@H](C(=O)O)C(c1ccccc1)c1ccccc1; Palmitoyl = CCCCCCCCCCCCCCCC(=O)*; β3hF = N[C@H](CC(=O)O)Cc1ccccc1; Tle = CC(C)(C)[C@H](N)C(=O)O; 4Amb = NCc1ccc(C(=O)O)cc1; Isovaleryl = CC(C)CC(=O)*; Dap = NC[C@H](N)C(=O)O; AEEA = NCCOCCOCC(=O)O; Ahx = NCCCCCC(=O)O
Reported IC50: FPN internalisation is given for each of the following binders.
// units = nM; emit number, no label

Worked cases, IC50: FPN internalisation given:
binder	val
Isovaleryl-[Glu(OMe)]TH[Dip]PC[Tle]K([AEEA-AEEA-Dap-C18 diacid])[β3hF][dK]C-NH2 (disulfide 6-11 (inferred)) [Seq. No. 514]	13.6
Isovaleryl-ETH[Dip]PC[4Amb][β3hF]K([Ahx-Palmitoyl])[dK]C-NH2 (not fully specified (bridges); cysteine pairing not given here) [Seq. No. 566]	31.8
XEXHXPCIXXXXC (not fully specified; [Isovaleric Acid]-E-[Lys(Acrylamide)]-H-[Dpa]-P-C-I-[(D)Lys]-[bhPhe]-[Lys(Ahx_Palm)]-[(D)Lys]-C-NH2) [Seq. No. 551]	90
XEXHXPCIXXXC ([Isovaleric Acid]-E-[Dab]-H-[Dpa]-P-C-I-[Lys(1PEG2_1PEG2_Ahx_C18_Diacid)]-[bhPhe]-[(D)Lys]-C-NH2) [Seq. No. 546]	53.6
XETHXPCIXXXC ([Isovaleric Acid]-E-T-H-[Dpa]-P-C-I-[Lys(PEG2_1PEG2_DMG_N_2ae_C18_Diacid)]-[bhPhe]-[(D)Lys]-C-NH2) [Seq. No. 544]	9.26

Okay, now this binder:
Which IC50: FPN internalisation reading was recorded for the binder XXTHXPXIXXXXC ([Isovaleric Acid]-[Glu(OMe)]-T-H-[Dpa]-P-[(D)Cys]-I-[(D)Lys]-[bhPhe]-[Lys(PEG2_1PEG2_DMG_N_2ae_C18_Diacid)]-[(D)Lys]-C-NH2) [Seq. No. 494] ?
107

The origin of these recorded values is patent US20230295259A1.
